List of IC50 values.
# studyTarget: human prostaglandin D2 receptor (DP) (DP1) (Homo sapiens, UniProt Q13258)
# Construct: endogenous in cells; host or cells: human platelets in platelet-rich plasma from donor blood
# Sequence (Q13258 whole entry): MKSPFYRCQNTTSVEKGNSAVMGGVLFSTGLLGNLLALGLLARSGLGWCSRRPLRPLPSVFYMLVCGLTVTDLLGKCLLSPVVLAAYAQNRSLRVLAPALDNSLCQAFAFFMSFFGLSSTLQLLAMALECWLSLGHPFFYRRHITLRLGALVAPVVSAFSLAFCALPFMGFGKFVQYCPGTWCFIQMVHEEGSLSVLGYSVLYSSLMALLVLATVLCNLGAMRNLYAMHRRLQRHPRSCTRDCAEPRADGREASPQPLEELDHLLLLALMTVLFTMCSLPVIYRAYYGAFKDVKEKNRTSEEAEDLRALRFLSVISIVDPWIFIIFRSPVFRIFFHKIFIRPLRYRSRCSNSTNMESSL
# procedureText: Antagonist activity on BW245C-induced cAMP accumulation in human platelet rich plasma (hPRP) by HTRF cAMP assay
# Format: cell-based
# cond: inhibition of BW245C (25 nM)-induced cAMP accumulation in human platelet rich plasma; compound tested as HCl salt; read-out: hPRP IC50 (as HCl salt)
Structures can show the parent of a compound that is named as a salt.
observationType: IC50 (nM)

{"molecule": "COc1nc(NCCc2ccc(OC(F)(F)F)cc2)cc(N2CCCCC2C(=O)O)n1 (centres unmarked) [Example 3, trifluoroacetate]", "observationType": "IC50", "measuredValue": 885}
{"molecule": "COc1nc(NCCc2ccc(OC(F)(F)F)cc2)cc(N2CCOCC2)n1", "observationType": "IC50", "measuredValue": 1180}
